tested-system: Urea transporter 1 (Mus musculus)
Sequence (Q8VHL0 whole entry): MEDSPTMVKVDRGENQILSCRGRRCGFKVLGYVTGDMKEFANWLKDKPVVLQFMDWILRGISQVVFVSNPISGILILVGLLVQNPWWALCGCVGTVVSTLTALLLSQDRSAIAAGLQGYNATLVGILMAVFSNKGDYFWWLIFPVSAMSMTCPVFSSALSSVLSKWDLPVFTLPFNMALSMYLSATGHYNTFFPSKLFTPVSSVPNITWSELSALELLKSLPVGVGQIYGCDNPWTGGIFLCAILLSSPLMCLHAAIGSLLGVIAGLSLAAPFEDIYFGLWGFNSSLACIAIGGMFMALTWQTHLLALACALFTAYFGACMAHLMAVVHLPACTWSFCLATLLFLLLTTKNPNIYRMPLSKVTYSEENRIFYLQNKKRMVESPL
experiment-notes: Inhibition of mouse UT-B expressed in MDCK cells
parameter: IC50 (nM)
# output: bare number, implied unit nM

item_smiles=O=C1Cc2cc(NC(=O)c3ccc([N+](=O)[O-])o3)ccc2N1 tested_system="Urea transporter 1 (Mus musculus)" parameter=IC50 test_value=4990
item_smiles=O=C(Nc1ccc(NS(=O)(=O)c2cccc(Br)c2)cc1)c1ccc([N+](=O)[O-])o1 tested_system="Urea transporter 1 (Mus musculus)" parameter=IC50 test_value=1600
item_smiles=O=C(Nc1ccc(NS(=O)(=O)c2cccc(F)c2)cc1)c1ccc([N+](=O)[O-])o1 tested_system="Urea transporter 1 (Mus musculus)" parameter=IC50 test_value=1320
item_smiles=O=C(Nc1ccc(NS(=O)(=O)c2ccccc2C(F)(F)F)cc1)c1ccc([N+](=O)[O-])o1 tested_system="Urea transporter 1 (Mus musculus)" parameter=IC50 test_value=1490

Lab note: next compound to report on.
Which measured IC50 value corresponds to O=C(Nc1ccc(NS(=O)(=O)c2ccc(F)cc2)cc1)c1ccc([N+](=O)[O-])o1 ?
1310
